Values were extracted from paper PMC12328218.

- Tested on: JNJ-6640-treated M. tuberculosis
- Format: cell-based, Mycobacterium tuberculosis
metric.name: effect of nucleobase addition on JNJ-6640-treated M. tuberculosis

> print(dat)
                       compound                 result
1  O=c1[nH]c(=O)c2nc[nH]c2[nH]1  no substantial effect
2             Nc1ncnc2[nH]cnc12  no substantial effect
3      Nc1nc2nc[nH]c2c(=O)[nH]1  no substantial effect

====

- Tested on: M. tuberculosis H37Rv CRISPRi PurF low knockdown strain
- experimental.protocol: microbe, parasite or virus in culture
- Type: cell-based, Mycobacterium tuberculosis
metric.name: pEC50
A value of pEC50 is the negative decimal logarithm of a concentration given in moles per litre.

Known value: M. tuberculosis H37Rv CRISPRi PurF low knockdown strain pEC50 of the compound COc1nc2ccc(Br)cc2cc1[C@@H](c1ccccc1)[C@@](O)(CCN(C)C)c1cccc2ccccc12 equals 7.36
